Ref: patent US20110086759A1

# System: Echinochloa crus-galli (ECHCG)
# Measurement notes: Pre-emergence biological efficacy, glasshouse pot test
# Assay type: in vivo
# Setup conditions: 312 h, pre-emergence, rate 1,000 g/ha, evaluated after 13 days (100=total damage to plant; 0=no damage), read-out: Percentage damage caused to weed species, ECHCG
Listed below: pest or weed control at 1000 g/ha values for each entry.
Reply with just the number (in %).

Solved cases (6 shown):
> print(dat)
                                  structure                   target.entity  quantitative.readout
1  CCN(Cc1ccccc1F)c1nc(C2CC2)nc(C(=O)OC)c1Cl  Echinochloa crus-galli (ECHCG)                    20
2  COC(=O)c1nc(C2CC2)nc(N(C)Cc2ccccc2F)c1Cl  Echinochloa crus-galli (ECHCG)                    20
3  COC(=O)c1nc(-c2ccc(F)c(C(F)(F)F)c2)nc(NCc2ccco2)c1Cl  Echinochloa crus-galli (ECHCG)                    20
4  COC(=O)c1nc(-c2ccc(Cl)c(OC)c2F)nc(NCc2ccco2)c1Cl  Echinochloa crus-galli (ECHCG)                   100
5  CCN(Cc1ccc(OC)c(OC)c1)c1nc(C2CC2)nc(C(=O)OC)c1Cl  Echinochloa crus-galli (ECHCG)                    10
6  O=C(NCc1ccccc1)c1nc(C2CC2)nc(NCc2ccccc2)c1Cl  Echinochloa crus-galli (ECHCG)                     0

Data point: `CCN(Cc1cccc(F)c1)c1nc(C2CC2)nc(C(=O)OC)c1Cl` ; pest or weed control at 1000 g/ha = 20

Data point: `COC(=O)c1nc(-c2ccc(Cl)c([N+](=O)[O-])c2)nc(NCc2ccco2)c1Cl` ; pest or weed control at 1000 g/ha = 0

Data point: `COC(=O)c1nc(C2CC2)nc(N(C)CCc2ccccc2)c1Cl` ; pest or weed control at 1000 g/ha = 0

Data point: `COC(=O)c1nc(-c2ccc(OC(F)(F)F)cc2)nc(NCc2ccco2)c1Cl` ; pest or weed control at 1000 g/ha = 0

Data point: `COC(=O)c1nc(-c2cc(F)c(F)cc2F)nc(NCc2ccco2)c1Cl` ; pest or weed control at 1000 g/ha = 0
